- Tested on: HCT116-MTAPdel
- TEST: 2D antiproliferative assay (CTG cell viability), MTAP-deficient cells
- Type: cell-based
- CONDITION_INFO: Homo sapiens, HCT-116; HCT116 MTAP-deficient cells, 7-10 days, CTG; read-out: HCT116-MTAPdel/IC50/nM
Field: IC50. Provide a value for each of the compounds that follow.
Please state the number and follow it with the unit.

stdin: // fetch IC50; item: CSc1ccc2c(c1)OCC2N(C)C(=O)C(=O)Nc1cnc(N)c2c1cnn2C (centres unmarked) ; system: HCT116-MTAPdel
stdout: 21 nM

stdin: // fetch IC50; item: CN(C(=O)C(=O)Nc1cnc(N)c2c1cnn2C)[C@@H]1COc2cc(-c3cncc(Cl)c3)ccc21 ; system: HCT116-MTAPdel
stdout: 9 nM

stdin: // fetch IC50; item: CCN(C(=O)C(=O)Nc1cnc(N)c2c1cnn2C)[C@@H]1COCc2nc(C(F)(F)F)ccc21 ; system: HCT116-MTAPdel
stdout: 10 nM

stdin: // fetch IC50; item: Cc1cc2cc(C(=O)N(Cc3ccc(C(F)(F)F)cn3)[C@H](C)c3ncccn3)ccc2nc1N [AM9747, reference compound] ; system: HCT116-MTAPdel
stdout: 7 nM

stdin: // fetch IC50; item: CN(C(=O)C(=O)Nc1cnc(N)c2c1cnn2C)C1COc2cc(S(=O)(=O)C(F)(F)F)ccc21 (centres unmarked) ; system: HCT116-MTAPdel
stdout: 9 nM
